# assay-text: self-splicing fitness, log relative to wild type (ln ratio); higher = more splicing; Tetrahymena group I intron in knt gene, E. coli kanamycin selection, DiMSum; sequences stand for … in CUCUCU…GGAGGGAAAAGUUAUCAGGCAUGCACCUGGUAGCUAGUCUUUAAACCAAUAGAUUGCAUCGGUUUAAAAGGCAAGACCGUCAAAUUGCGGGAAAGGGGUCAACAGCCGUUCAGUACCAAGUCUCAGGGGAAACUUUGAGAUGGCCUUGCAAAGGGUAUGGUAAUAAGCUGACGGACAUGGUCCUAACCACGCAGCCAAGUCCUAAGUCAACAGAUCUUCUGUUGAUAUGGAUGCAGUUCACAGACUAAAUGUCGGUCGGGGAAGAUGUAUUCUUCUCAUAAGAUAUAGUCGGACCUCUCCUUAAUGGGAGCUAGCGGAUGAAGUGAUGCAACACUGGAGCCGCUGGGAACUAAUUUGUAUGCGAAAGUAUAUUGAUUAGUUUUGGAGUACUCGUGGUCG;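 note: selection with 25 µg/mL kanamycin versus none on LB agar overnight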
# assay-setup: 30 °C
measured-endpoint: self-splicing fitness (ln)
Numbers only.

These solved cases illustrate the format of a correct answer.
CACCAGCAAUAUUACGCUAU    -4.03
UUCCAGCAAUAUUACGGUCC    -1.79
CUGAAGCAAUAUUACGAGGG    -2.03
CGUUAGCAAUAUUACGGAUA    -1.83
CUCAAGCAAUAUUACGGGAU    -3.47
GGAAAGCAAUAUUACGAGAC    -3.69

For each listed entry, give its self-splicing fitness (ln).
1. UAGGAGCAAUAUUACGCUUG
2. CACAAGCAAUAUUACGGCGU
3. CUAUAGCAAUAUUACGCCGG
4. CCACAGCAAUAUUACGCUUA
5. CUAGAGCAAUAUUACGCAUC
6. CUCGAGCAAUAUUACGUGGA
7. GCACAGCAAUAUUACGACGU
8. GAGCAGCAAUAUUACGAGAA

1. -1.18
2. -1.66
3. -1.65
4. -3.43
5. -3.92
6. -2.89
7. -0.591
8. -2.25

Report self-splicing fitness (ln) for each item below.
1. CGUCAGCAAUAUUACGAUAC
2. AUUAAGCAAUAUUACGCAUA
3. CGCCAGCAAUAUUACGCUUC
4. UUGCAGCAAUAUUACGGCCG
5. UCCGAGCAAUAUUACGCAGU
6. AUCAAGCAAUAUUACGCCGU

1. -2.65
2. -1.98
3. -2.77
4. -1.21
5. -2.79
6. -1.19

###

# assay-text: self-splicing fitness, log relative to wild type (ln ratio); higher = more splicing; Tetrahymena group I intron in knt gene, E. coli kanamycin selection, DiMSum; sequences stand for … in CUCUCU…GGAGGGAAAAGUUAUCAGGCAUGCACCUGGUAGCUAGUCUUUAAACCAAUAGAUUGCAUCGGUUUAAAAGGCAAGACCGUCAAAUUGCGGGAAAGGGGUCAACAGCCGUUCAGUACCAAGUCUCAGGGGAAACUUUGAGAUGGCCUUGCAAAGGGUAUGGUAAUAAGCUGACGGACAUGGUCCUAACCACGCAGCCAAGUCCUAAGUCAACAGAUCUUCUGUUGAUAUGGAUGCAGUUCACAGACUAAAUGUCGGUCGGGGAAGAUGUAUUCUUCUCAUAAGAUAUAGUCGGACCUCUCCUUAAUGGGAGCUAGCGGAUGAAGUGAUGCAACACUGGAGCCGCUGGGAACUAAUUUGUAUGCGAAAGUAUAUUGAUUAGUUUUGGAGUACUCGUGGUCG
# assay-setup: 30 °C
measured-endpoint: self-splicing fitness (ln)
Answers are plain numbers.

Sample records with self-splicing fitness (ln):
UGGAAGCAAUAUUACGACCC    -0.0757
CACAAGCAAUAUUACGCGAG    -1.89
GCAAAGCAAUAUUACGCUAG    -2.78
GUAAAGCAAUAUUACGCAUU    -1.76
UCUGAGCAAUAUUACGCAUG    -2.33

Now examine the next entry.
Quick one: self-splicing fitness (ln) of CACAAGCAAUAUUACGUUGA ?
-3.84

###

# assay-text: self-splicing fitness, log relative to wild type (ln ratio); higher = more splicing; Tetrahymena group I intron in knt gene, E. coli kanamycin selection, DiMSum; sequences stand for … in CUCUCU…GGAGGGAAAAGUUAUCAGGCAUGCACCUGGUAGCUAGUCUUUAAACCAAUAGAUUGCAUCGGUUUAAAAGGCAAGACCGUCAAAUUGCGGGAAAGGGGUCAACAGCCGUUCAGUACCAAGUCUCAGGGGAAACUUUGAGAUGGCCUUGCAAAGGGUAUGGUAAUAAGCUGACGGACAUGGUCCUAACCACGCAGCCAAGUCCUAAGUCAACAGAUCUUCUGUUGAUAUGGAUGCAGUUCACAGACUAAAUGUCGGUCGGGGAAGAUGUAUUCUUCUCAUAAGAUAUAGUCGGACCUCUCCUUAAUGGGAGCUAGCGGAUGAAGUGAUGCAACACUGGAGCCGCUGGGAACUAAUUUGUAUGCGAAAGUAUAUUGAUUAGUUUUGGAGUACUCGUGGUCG
# assay-setup: 37 °C
measured-endpoint: self-splicing fitness (ln)
One number for each entry.

Answered cases to consult:
GUCGAGCAAUAUUACGGACG    -0.738
UUCUAGCAAUAUUACGGUAU    -0.561

Now take the following sequence into account.
# get_value(readout='self-splicing fitness (ln)', item= AUAGAGCAAUAUUACGCAAU )
0.283

###

Would you kindly list self-splicing fitness (ln) for each of these sequences?
# assay-text: self-splicing fitness, log relative to wild type (ln ratio); higher = more splicing; Tetrahymena group I intron in knt gene, E. coli kanamycin selection, DiMSum; sequences stand for … in CUCUCU…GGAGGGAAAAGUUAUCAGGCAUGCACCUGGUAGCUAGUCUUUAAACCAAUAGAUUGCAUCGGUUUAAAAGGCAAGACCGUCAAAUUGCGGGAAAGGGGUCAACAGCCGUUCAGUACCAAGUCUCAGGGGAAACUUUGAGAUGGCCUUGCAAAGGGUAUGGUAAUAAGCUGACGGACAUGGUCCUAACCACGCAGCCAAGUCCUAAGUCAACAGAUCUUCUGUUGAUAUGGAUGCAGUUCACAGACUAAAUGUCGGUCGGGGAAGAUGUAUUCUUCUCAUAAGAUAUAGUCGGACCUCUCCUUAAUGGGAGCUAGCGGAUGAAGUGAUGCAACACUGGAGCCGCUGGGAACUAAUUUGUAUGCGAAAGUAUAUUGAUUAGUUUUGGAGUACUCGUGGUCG
# assay-setup: 37 °C
Numbers only.

Consider the following illustrative entries.
CGCGAGCAAUAUUACGACCA    -2.4
GACGAGCAAUAUUACGCCAG    -2.63
UACUAGCAAUAUUACGUAAA    -0.614

Items follow; give self-splicing fitness (ln) for each.
1. AUUCAGCAAUAUUACGAUUA
2. CUACAGCAAUAUUACGAACG

0.146
0.6

Hi, could you look up self-splicing fitness (ln) for each item in my list?
1. GUUUAGCAAUAUUACGGUGU
2. UUAAAGCAAUAUUACGCGAG

1: -1.38; 2: 0.3

Dear colleague, could you send me self-splicing fitness (ln) for each of the items below? Thanks.
1. AAUCAGCAAUAUUACGGUAA
2. UAAGAGCAAUAUUACGGGCC
3. GGUUAGCAAUAUUACGUUCC

1: 0.0455; 2: -0.897; 3: -0.8

###

# assay-text: self-splicing fitness, log relative to wild type (ln ratio); higher = more splicing; Tetrahymena group I intron in knt gene, E. coli kanamycin selection, DiMSum; sequences stand for … in CUCUCU…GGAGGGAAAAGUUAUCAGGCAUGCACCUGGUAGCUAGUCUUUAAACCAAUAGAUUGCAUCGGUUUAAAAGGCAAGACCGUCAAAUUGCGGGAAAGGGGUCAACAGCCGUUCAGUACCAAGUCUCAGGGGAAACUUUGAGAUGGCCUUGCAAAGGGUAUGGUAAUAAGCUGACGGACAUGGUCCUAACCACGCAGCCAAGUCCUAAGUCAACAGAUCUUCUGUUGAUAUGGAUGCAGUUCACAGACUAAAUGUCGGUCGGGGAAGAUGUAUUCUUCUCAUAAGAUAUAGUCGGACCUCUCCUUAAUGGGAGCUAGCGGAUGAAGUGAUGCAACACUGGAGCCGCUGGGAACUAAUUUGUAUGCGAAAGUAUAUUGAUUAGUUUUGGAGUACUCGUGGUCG
# assay-setup: 37 °C
measured-endpoint: self-splicing fitness (ln)
One number for each entry.

Solved cases (3 shown):
GCAAAGCAAUAUUACGCUCU    -0.565
GCUCAGCAAUAUUACGACGG    -1.3
AUCAAGCAAUAUUACGUCUA    -0.438

Batch request: self-splicing fitness (ln) for each of the following sequences.
1. UUCAAGCAAUAUUACGGGAU
2. CCCUAGCAAUAUUACGUGUG
3. CUAUAGCAAUAUUACGUUUG

-1.4
-2.43
-1.11

Origin of measurements: the supplement of paper PMC7877785
